# Study target: Beta-secretase 1 (Homo sapiens, UniProt P56817)
# Sequence (P56817 whole entry): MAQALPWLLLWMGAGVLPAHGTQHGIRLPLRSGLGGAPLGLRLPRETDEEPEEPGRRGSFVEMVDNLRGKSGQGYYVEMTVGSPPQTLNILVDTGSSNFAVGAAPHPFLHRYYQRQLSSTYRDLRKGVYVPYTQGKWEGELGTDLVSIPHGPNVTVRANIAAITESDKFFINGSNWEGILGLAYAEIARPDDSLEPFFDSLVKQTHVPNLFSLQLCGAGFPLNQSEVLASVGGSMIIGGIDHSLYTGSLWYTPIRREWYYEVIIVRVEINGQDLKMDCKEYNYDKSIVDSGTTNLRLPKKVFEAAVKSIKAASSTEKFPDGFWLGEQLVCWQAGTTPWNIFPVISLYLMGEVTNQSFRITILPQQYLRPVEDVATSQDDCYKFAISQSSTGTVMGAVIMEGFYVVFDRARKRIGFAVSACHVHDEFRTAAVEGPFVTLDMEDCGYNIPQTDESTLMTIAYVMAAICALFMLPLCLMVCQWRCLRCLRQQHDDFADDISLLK
# Assay name: Inhibition of human recombinant BACE using H-RE-(EDANS)EVNLDAEFK(DABCYL)R-OH as substrate preincubated for 1 hr before addition of substrate measured after 1 hr
Measure name: pIC50
Formally, pIC50 is defined as -log10 of the concentration c, with c in mol/L.

// pIC50 lookup, compound = CN1CC(=O)OB(/C=C/c2ccccc2)OC(=O)C1 , result: 3.87

----------
# System: SH-SY5Y
# Assay name: Neuroprotective activity in human APP695-transfected SH-SY5Y cells assessed as decrease of malondialdehyde level after 16 hrs (reference value: 52 +/- 1.84 nmol/mg)
# Assay type: functional
Measure name: Activity (nmol/mg)
The figure you give is taken to be in nmol/mg; do not add the unit.

Worked cases, Activity given:
Lab note: measured Activity of OB(O)/C=C/c1ccc(F)cc1 was 37.73

The reported value for CC1(C)OB(/C=C/c2cccc(C(F)(F)F)c2)OC1(C)C in terms of Activity is 44.03

Activity reading for COc1cc(/C=C/B2OC(C)(C)C(C)(C)O2)cc(OC)c1 : 48.18

The reported Activity of the molecule CCCCC/C=C/B(O)O was 40.34

Input COc1ccc(/C=C/B(O)O)cc1 . Output Activity: 44.35

More entries:
Summary for this molecule, CN1CC(=O)OB(/C=C/c2ccccc2)OC(=O)C1 : Activity is 41.96

The molecule listed as OB(O)/C=C/c1ccccc1 has a reported Activity of 42.22
